Target: T1, human IL-33 (R&D Systems, #3625-IL-010/CF) (human, UniProt O95760 112-270)
T1 construct: Commercial recombinant protein; also called hIL-33; interleukin-33
T1 sequence (looked up): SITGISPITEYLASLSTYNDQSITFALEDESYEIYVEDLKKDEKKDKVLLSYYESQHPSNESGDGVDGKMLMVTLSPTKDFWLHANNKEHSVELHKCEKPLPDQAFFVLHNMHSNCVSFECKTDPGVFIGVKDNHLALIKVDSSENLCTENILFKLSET
Experiment: BLI; hIL-33 pre-mixed with mAb-2 Isotype control 1
Listing: mAb-1 Binding to the Pre-complex of mAb-2 & hIL-33 of selected binders
quantity.kind: mAb-1 Binding to the Pre-complex of mAb-2 & hIL-33 (nm)

1) H4H9672P (antibody, human IgG4, V domains shown, Human IgG4 Fc (H4H)) VH: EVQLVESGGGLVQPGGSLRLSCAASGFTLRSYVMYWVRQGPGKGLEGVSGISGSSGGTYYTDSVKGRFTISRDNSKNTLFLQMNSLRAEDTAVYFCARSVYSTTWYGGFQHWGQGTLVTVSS VL: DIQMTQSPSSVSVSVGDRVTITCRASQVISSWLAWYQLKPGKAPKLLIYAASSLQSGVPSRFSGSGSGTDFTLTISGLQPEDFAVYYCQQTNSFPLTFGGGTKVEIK: 0.16
2) H4H9675P (antibody, human IgG4, V domains shown, Human IgG4 Fc (H4H)) VH: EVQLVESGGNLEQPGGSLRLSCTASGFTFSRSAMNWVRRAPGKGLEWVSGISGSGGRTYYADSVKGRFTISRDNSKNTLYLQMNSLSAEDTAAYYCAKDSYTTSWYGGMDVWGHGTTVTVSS VL: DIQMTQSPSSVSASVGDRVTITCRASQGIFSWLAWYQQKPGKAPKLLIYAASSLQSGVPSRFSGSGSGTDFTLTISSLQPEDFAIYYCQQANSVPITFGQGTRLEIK: 0.13
